Values from patent US20100311648A1

Target: T1, human melanocortin-4 receptor (human, UniProt P32245 1-332)
T1 construct: whole, on cells; functional assay: HEK293-T-REx-MC4-R cells induced with 0.1 or 10 ng/mL doxycycline; also called hMC4-R; MC4-R
T1 sequence (P32245 whole entry): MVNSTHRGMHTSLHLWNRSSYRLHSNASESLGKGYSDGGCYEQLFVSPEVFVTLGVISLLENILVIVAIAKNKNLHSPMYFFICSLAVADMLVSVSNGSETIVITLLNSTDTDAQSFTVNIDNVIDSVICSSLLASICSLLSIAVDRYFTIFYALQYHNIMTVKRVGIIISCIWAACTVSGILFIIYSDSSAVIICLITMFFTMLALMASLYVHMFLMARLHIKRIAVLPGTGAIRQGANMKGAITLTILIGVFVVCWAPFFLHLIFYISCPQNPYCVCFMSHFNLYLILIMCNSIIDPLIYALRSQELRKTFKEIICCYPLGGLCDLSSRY
Test: [I125]-NDP-α-MSH competition, hMC4-R HEK-293 membranes
Description: A competitive inhibition binding assay was performed for exemplified peptides according to the invention using membrane homogenates prepared from HEK-293 cells that express recombinant hMC4-R, hMC3-R, or hMC5-R, and from B-16 mouse melanoma cells (containing endogenous MC1-R). […] Filters were dried and counted in a gamma counter for bound radioactivity. […] Ki values for test peptides of the present invention were determined using Graph-Pad Prism® curve-fitting software.
Positions of bridges follow the written chain, without caps; N, C: chain ends. Non-standard residues stand in square brackets, D forms with d. dPhe(3,4,5-F3) = N[C@H](Cc1cc(F)c(F)c(F)c1)C(=O)O; dPhe(3,5-F2) = N[C@H](Cc1cc(F)cc(F)c1)C(=O)O; dPhe(4-CN) = N#Cc1ccc(C[C@@H](N)C(=O)O)cc1; dPhe(2-Cl) = N[C@H](Cc1ccccc1Cl)C(=O)O; dPhe(4-F) = N[C@H](Cc1ccc(F)cc1)C(=O)O; dPhe(2-F) = N[C@H](Cc1ccccc1F)C(=O)O; Orn = NCCC[C@H](N)C(=O)O
pKi listing for selected binders.
In textbook form, pKi equals minus log to base ten of the concentration in mol/L.

Ac-R[Orn]N[dPhe(2-Cl)]RWE-NH2 (lactam 2-7) [Ac-Arg-cyclo(Orn-Asn-D-Phe(2-Cl)-Arg-Trp-Glu)-NH2] :: 8.15
Ac-REN[dPhe(3,5-F2)]RW[Orn]-NH2 (lactam 2-7, also called No. 76) [Ac-Arg-cyclo(Glu-Asn-D-Phe(3,5-diF)-Arg-Trp-Orn)-NH2] :: 7.70
Ac-R[Orn]N[dPhe(3,5-F2)]RWE-NH2 (lactam 2-7, also called No. 77) [Ac-Arg-cyclo(Orn-Asn-D-Phe(3,5-diF)-Arg-Trp-Glu)-NH2] :: 8.10
Ac-REQ[dPhe(4-CN)]RW[Orn]-OH (lactam 2-7, also called No. 86) [Ac-Arg-cyclo(Glu-Gln-D-Phe(4-CN)-Arg-Trp-Orn)-OH] :: 7.40
Ac-RED[dPhe(4-CN)]RW[Orn]-OH (lactam 2-7; SMILES CC(=O)N[C@@H](CCCNC(=N)N)C(=O)N[C@H]1CCC(=O)NCCC[C@@H](C(=O)O)NC(=O)[C@H](Cc2c[nH]c3ccccc23)NC(=O)[C@H](CCCNC(=N)N)NC(=O)[C@@H](Cc2ccc(C#N)cc2)NC(=O)[C@H](CC(=O)O)NC1=O, also called No. 107) [Ac-Arg-cyclo(Glu-Asp-D-Phe(4-CN)-Arg-Trp-Orn)-OH] :: 5.19
Ac-RES[dPhe(4-F)]RW[Orn]-NH2 (lactam 2-7; SMILES CC(=O)N[C@@H](CCCNC(=N)N)C(=O)N[C@H]1CCC(=O)NCCC[C@@H](C(N)=O)NC(=O)[C@H](Cc2c[nH]c3ccccc23)NC(=O)[C@H](CCCNC(=N)N)NC(=O)[C@@H](Cc2ccc(F)cc2)NC(=O)[C@H](CO)NC1=O, also called No. 65) [Ac-Arg-cyclo(Glu-Ser-D-Phe(4-F)-Arg-Trp-Orn)-NH2] :: 8.30
Ac-REN[dPhe(3,4,5-F3)]RW[Orn]-NH2 (lactam 2-7, also called No. 95) [Ac-Arg-cyclo(Glu-Asn-D-Phe(3,4,5-triF)-Arg-Trp-Orn)-NH2] :: 8.52
RDQXRWK (N-terminal Ac; D-Phe(4-CN) 4; lactam Asp 2-Lys 7; C-terminal NH2, also called No. 90) [Ac-Arg-cyclo(Asp-Gln-D-Phe(4-CN)-Arg-Trp-Lys)-NH2] :: 8.30

## Input So what does the record say about pKi for Ac-REQ[dPhe(2-F)]RW[Orn]-NH2 (lactam 2-7, also called No. 59) [Ac-Arg-cyclo(Glu-Gln-D-Phe(2-F)-Arg-Trp-Orn)-NH2] ?
## Output 8.15

## Input Find the recorded pKi belonging to RDPXRWK (N-terminal Ac; D-Phe(2-F) 4; lactam Asp 2-Lys 7; C-terminal NH2) [Ac-Arg-cyclo(Asp-Pro-D-Phe(2-F)-Arg-Trp-Lys)-NH2] and report it.
## Output 7.11
